Target: KRas^G12R (Homo sapiens, UniProt P01116, G12R)
Construct: Biotinylated KRas (corresponding to amino acids 1-169, produced at Accelegan Inc.); biotin (biotinylated); purchased Accelegan Inc
Sequence (P01116 1-169 isoform P01116-2 G12R): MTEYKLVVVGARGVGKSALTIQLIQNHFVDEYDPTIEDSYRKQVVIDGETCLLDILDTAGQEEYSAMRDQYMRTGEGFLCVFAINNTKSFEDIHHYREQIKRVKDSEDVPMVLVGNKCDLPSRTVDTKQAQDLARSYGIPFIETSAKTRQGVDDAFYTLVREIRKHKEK
Test: KRas binding assay (TR-FRET tracer displacement), KRas G12R
Property measured: IC50

Would you please look over these solved cases?
Compound | Property measured | Assay value
CCc1c(F)ccc2cc(O)cc(-c3ncc4c(N5CCC[C@@](C)(O)C5)nc(OC[C@@]56CCCN5[C@H](COC(=O)N5CCCCC5)CC6)nc4c3F)c12 | IC50 | < 2 nM
CCc1c(F)ccc2cc(O)cc(-c3ncc4c(N5C[C@H]6C[C@@H](C5)C(O)C6O)nc(OC[C@@]56CCCN5C[C@H](F)C6)nc4c3F)c12 (single isomer, unassigned) | IC50 | < 2 nM

Turning now to a further record.
Ask | Item under review: CCc1c(F)ccc2cc(O)cc(-c3ncc4c(N5CCC[C@@](C)(O)C5)nc(OC[C@@]56CCCN5[C@H](CNS(=O)(=O)N(C)C)CC6)nc4c3F)c12 . Reported IC50?
Reply | < 2 nM

* * *

Target: KRas^G12D (Homo sapiens, UniProt P01116, G12D)
Construct: Biotinylated KRas (corresponding to amino acids 1-169, produced at Accelegan Inc.); biotin (biotinylated); purchased Accelegan Inc
Sequence (P01116 1-169 isoform P01116-2 G12D): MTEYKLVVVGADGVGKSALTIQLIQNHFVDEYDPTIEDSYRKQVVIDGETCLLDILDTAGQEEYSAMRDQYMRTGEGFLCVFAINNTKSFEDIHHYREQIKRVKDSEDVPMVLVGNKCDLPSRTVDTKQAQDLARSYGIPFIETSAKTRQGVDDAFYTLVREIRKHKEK
Test: KRas binding assay (TR-FRET tracer displacement), KRas G12D
Property measured: IC50

Would you please look over these solved cases?
Molecule | IC50
C[C@@H]1C[C@@H]1c1c(Cl)cc(O)cc1-c1ncc2c(N3CCC[C@@](C)(O)C3)nc(OC[C@@]34CCCN3C/C(=C\F)C4)nc2c1F [Example 944] | < 2 nM
CCc1c(F)ccc2cc(O)cc(-c3ncc4c(N5CCCCn6nc(C(=O)N(C)C)cc6C5)nc(OC[C@@]56CCCN5C[C@H](F)C6)nc4c3F)c12 [Example 671] | < 2 nM
CCc1c(F)ccc2cc(O)cc(-c3ncc4c(N5CCC(O)c6nn(C(=O)N(C)C)cc6C5)nc(OC[C@@]56CCCN5C[C@H](F)C6)nc4c3F)c12 (stereo partly shown) [Example 674] | < 2 nM

Ask | Item under review: CCc1c(F)ccc2cc(O)cc(-c3ncc4c(N5CCC[C@@](C)(O)C5)nc(OCC5(CNC)CC5)nc4c3F)c12 [Example 696] . Reported IC50?
Reply | < 2 nM

* * *

Target: KRas^G12D (Homo sapiens, UniProt P01116, G12D)
Construct: Biotinylated KRas (corresponding to amino acids 1-169, produced at Accelegan Inc.); biotin (biotinylated); purchased Accelegan Inc
Test: KRas binding assay (TR-FRET tracer displacement), KRas G12D
Below: a set of entries, each annotated with reported IC50.

Would you please look over these solved cases?
Compound | IC50
CCc1c(F)ccc2cc(O)cc(-c3ncc4c(N5CCC[C@@](C)(O)C5)nc(OCC5(CN(C)C)CC5CO)nc4c3F)c12 (stereo partly shown) | < 2 nM
CCc1c(F)ccc2cc(O)cc(-c3ncc4c(N5CCC[C@@](C)(O)C5)nc(OC[C@@]56CCCN5[C@H](COCC5CCCC5)CC6)nc4c3F)c12 | < 2 nM
O=C1NC(=O)[C@]2(CCCN(c3nc(OC[C@@]45CCCN4C[C@H](F)C5)nc4c(F)c(-c5c(C6CC6)c(Cl)cc6[nH]ncc56)ncc34)C2)N1 | < 2 nM

Ask | Item under review: C[C@@H]1C[C@@H]1c1c(Cl)cc(O)cc1-c1ncc2c(N3CCC[C@]4(C3)NC(=O)NC4=O)nc(OCC34CCCN3C/C(=C\F)C4)nc2c1F (stereo partly shown) . Reported IC50?
Reply | < 2 nM

Hello, the source for this data is patent US20260015350A1, in case you need it.
